- Assayed system: Recombinant human HSD17B13 (Homo sapiens (Human), UniProt Q7Z5P4)
- Sequence (Q7Z5P4 20-300): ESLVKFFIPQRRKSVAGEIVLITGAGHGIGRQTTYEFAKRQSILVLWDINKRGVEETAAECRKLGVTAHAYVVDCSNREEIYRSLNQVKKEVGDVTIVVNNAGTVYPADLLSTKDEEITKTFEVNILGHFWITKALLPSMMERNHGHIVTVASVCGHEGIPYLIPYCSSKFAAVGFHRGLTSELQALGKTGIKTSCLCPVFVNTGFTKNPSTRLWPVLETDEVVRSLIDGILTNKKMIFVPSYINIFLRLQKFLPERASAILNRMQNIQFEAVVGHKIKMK
- Assay remarks: HSD17B13 rapid-fire mass spectrometry assay (RF/MS assay)
- Condition description: inhibition of HSD17B13; LTB4 10 μM, NAD+ 0.5 mM, RT 3 h; IC50 ranges A-E
- Procedure: HSD17B13 rapid-fire mass spectrometry assay (RF/MS assay). Recombinant human HSD17B13 was expressed and purified from sf9 cells at Charles River Labs (Saffron Walden, UK). […] Leukotriene B4 (335.3) and 12-oxoLeukotriene B4 (333.3) SRM transitions were optimized with Discovery Quant software and extracted ion counts for these analytes were determined. […] By using above method, the inhibition of HSD17B13 was evaluated for the compounds of Formula (I). […]
pIC50: −log10 of the molar value.
Measured endpoint: pIC50

Example results:
compound="CCOc1cc(C(=O)O)ccc1NS(=O)(=O)c1cnc(-c2ccc(F)cc2)s1 [Example 1]" endpoint_result="6.00 to 6.30"
compound="COc1cc(C(=O)O)c(F)cc1NS(=O)(=O)c1csc(-c2ccc(C3=CCC(C)(C)CC3)cc2OC)n1 [Example 536]" endpoint_result="> 7.00"
compound="O=C(O)c1ccc(NS(=O)(=O)c2cnc(-c3ccc(F)cc3)s2)c(O)c1F [Example 62]" endpoint_result="> 7.00"

We next turn to a different compound, shown below.
pIC50 of O=S(=O)(Nc1ccc(O)c(Cl)c1)c1cnc(-c2ccc(F)cc2)s1 [Example 114] , assay on Recombinant human HSD17B13 (Homo sapiens (Human), UniProt Q7Z5P4), is 4.00 to 6.00
